# Tested system: T1, human neuropeptide Y2 (NPY2) receptor (human, UniProt P49146 1-381)
# T1 sequence (looked up): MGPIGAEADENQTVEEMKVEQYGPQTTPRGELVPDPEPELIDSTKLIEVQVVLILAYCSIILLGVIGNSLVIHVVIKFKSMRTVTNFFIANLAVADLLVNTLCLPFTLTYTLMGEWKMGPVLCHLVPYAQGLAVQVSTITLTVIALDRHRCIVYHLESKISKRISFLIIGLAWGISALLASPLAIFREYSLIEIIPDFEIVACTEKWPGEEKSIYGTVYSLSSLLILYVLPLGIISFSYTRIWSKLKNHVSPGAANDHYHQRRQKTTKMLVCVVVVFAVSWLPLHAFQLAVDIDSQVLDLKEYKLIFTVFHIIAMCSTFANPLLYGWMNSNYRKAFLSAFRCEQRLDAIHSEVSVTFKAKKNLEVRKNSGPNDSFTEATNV
# Test summary: cell-based or functional assay
Starred links: 1 amine or outer side, 2 acyl side, 3 side chain; linkers in the order of their positions; H or OH if unused. Non-standard residues stand in square brackets, D forms with d. Groups on a side chain read outwards from the residue. No end group written: not given here. *: point of attachment. C20 diacid = O=C(O)CCCCCCCCCCCCCCCCCCC(=O)*; C18 diacid = O=C(O)CCCCCCCCCCCCCCCCC(=O)*; γGlu = O=C(O)[C@H](CCC(=O)[*:2])N[*:1]; εLys = N[C@@H](CCCCN[*:1])C(=O)[*:2]; AEEA = NCCOCCOCC(=O)O; Aib = CC(C)(N)C(=O)O
Assign EC50, CreLuc assay, 0.5% hP to each entry below.
Give bare numbers, in nM.

Illustrative cases are given below, each with its answer.
- Binder: "YXEGTFTSDYSIXLEKQAQXAFVEWLIKGGPSSGVSIRHYYNWLTRQRY (Aib at 2, 13, 20; K28 side chain: C20DA-gGlu-gGlu-gGlu-gGlu-gGlu-gGlu-eLys; C-terminal NH2) [Compound 27]"
  EC50, CreLuc assay, 0.5% hP, nM: 7.16
- Binder: "YXEGTFTSDYSIXLEKQAQXAFVEWLIKGGPSSGESXRHYYNWLTRQRY (Aib at 2, 13, 20, 37; K28 side chain: C20DA-gGlu-gGlu-gGlu-gGlu-gGlu-gGlu-eLys; C-terminal NH2) [Compound 49]"
  EC50, CreLuc assay, 0.5% hP, nM: 12.5
- Binder: "Y[Aib]EGTFTSDYSI[Aib]LEKQAQ[Aib]AFVEWLIK([εLys-Glu-γGlu-γGlu-γGlu-γGlu-C20 diacid])GGPSYYVSLRHYYNWLTRQRY-NH2 (also: TFA salt) [Compound 75]"
  EC50, CreLuc assay, 0.5% hP, nM: 7.12
- Binder: "YXEGTFTSDYSIXLEKQAQXAFVEWLIKGGPSSGQSLRHYYNWLTRQRY (Aib at 2, 13, 20; K28 side chain: C20DA-gGlu-gGlu-gGlu-gGlu-gGlu-gGlu-eLys; C-terminal NH2) [Compound 84]"
  EC50, CreLuc assay, 0.5% hP, nM: 8.31
- Binder: "YXEGTFTSDYSIXLEKQAQXAFVEWLIKGGPSEYVSIRHYYNWLTRQRY (Aib at 2, 13, 20; K28 side chain: C20DA-gGlu-gGlu-gGlu-gGlu-gGlu-gGlu-eLys; C-terminal NH2) [Compound 42]"
  EC50, CreLuc assay, 0.5% hP, nM: 8.82
- Binder: "Y[Aib]EGTFTSDYSI[Aib]LEKQAQ[Aib]AFVQWLIK([AEEA-AEEA-γGlu-γGlu-γGlu-γGlu-C18 diacid])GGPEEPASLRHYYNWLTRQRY-NH2 (also: TFA salt) [Compound 57]"
  EC50, CreLuc assay, 0.5% hP, nM: 9.74

Hi, could you look up EC50, CreLuc assay, 0.5% hP for each item in my list?
1. YXEGTFTSDYSIXLEKQAQXAFVQWLIKGGPSEYVSLRHYYNWLTRQRY (Aib at 2, 13, 20; K28 side chain: C20DA-gGlu-gGlu-gGlu-gGlu-gGlu-gGlu-eLys; C-terminal NH2) [Compound 78]
2. YXEGTFTSDYSIXLEKQAQXAFVEWLIKGGPSSPQSLRHYYNWLTRQRY (Aib at 2, 13, 20; K28 side chain: C20DA-gGlu-gGlu-gGlu-gGlu-gGlu-gGlu-eLys; C-terminal NH2) [Compound 41]
3. YXEGTFTSDYSIXLEKQAQXAFVQWLIKGGPSYYVSLRHYYNWLTRQRY (Aib at 2, 13, 20; K28 side chain: C20DA-gGlu-gGlu-gGlu-gGlu-gGlu-gGlu-eLys; C-terminal NH2) [Compound 19]
4. Y[Aib]EGTFTSDYSI[Aib]LEKQAQ[Aib]EFVEWLIK([AEEA-AEEA-γGlu-γGlu-γGlu-C18 diacid])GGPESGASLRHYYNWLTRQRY-NH2 (also: TFA salt) [Compound 81]
5. YXEGTFTSDYSIXLEKQAQXAFVQWLIKGGPESPASLRHYYNWLTRQRY (Aib at 2, 13, 20; K28 side chain: C18DA-gGlu-gGlu-gGlu-gGlu-gGlu; C-terminal NH2) [Compound 12]
6. Y[Aib]EGTFTSDYSI[Aib]LEKQAQ[Aib]AFVEWLIK([εLys-γGlu-γGlu-γGlu-γGlu-γGlu-C20 diacid])GGPESPASLRHYYNWLTRQRY-NH2 (also: TFA salt) [Compound 70]
7. YXEGTFTSDYSIXLEKQAQXAFVQWLIKGGPRYYASLRHYYNWLTRQRY (Aib at 2, 13, 20; K28 side chain: C20DA-gGlu-gGlu-gGlu-gGlu-gGlu-gGlu-eLys; C-terminal NH2) [Compound 14]

1: 12.9; 2: 10.2; 3: 9.41; 4: 11.1; 5: 11.9; 6: 16.2; 7: 6.85
